Assay: Inhibition of amyloid beta (1-42) self-aggregation after 24 hrs by sedimentation assay with ELISA
measured.attribute: IC50 (µM)

O=C(Cc1ccccc1)NC(CSSCC(NC(=O)Cc1ccccc1)C(=O)O)C(=O)O (configuration not stated) ... 1.95
CNc1ccc(C(=O)NC(CCCCNC(=O)OCc2ccccc2)C(=O)O)cc1 (configuration not stated) ... 2.75
